targetSystem: recombinant CobB (WT) (P. mirabilis)
assayRemarks: ITC
Ends that are not written are not given here. * marks the point of attachment. Isobutyryl(2-OH) = CC(C)(O)C(=O)*
readoutType: Kd (nM)
Numbers only, in nM.

[Q] GET /values?readout=Kd&item= YGDEQVK(Isobutyryl(2-OH))QWR [2-hydroxyisobutyrylated peptide [YGDEQVK(hib)QWR]]
[A] 2030
